test system: Mus musculus; assay: Compound was tested for antidiabetic activity by measuring percentage reduction in plasma glucose at a dose of 30 mg/kg; format: functional
Answer false if Reduction is under 20%, and true if it is 20% or more.

>>> group_label("C/C(=C1\\SC(=O)NC1=O)c1ccco1")
"false"
>>> group_label("COc1ccc2cc(CC/C(C)=C3/SC(=O)NC3=O)ccc2c1")
"false"
>>> group_label("COc1ccc2cc(/C(C)=C3/SC(=O)NC3=O)ccc2c1")
"true"
>>> group_label("COc1ccc2cc(/C(CC(C)=O)=C3\\SC(=O)NC3=O)ccc2c1")
"false"
>>> group_label("Cc1c(C)c2c(c(C)c1O)CCC(C)(COc1ccc(CC3SC(=O)NC3=O)cc1)O2 (stereo not drawn)")
"false"
>>> group_label("O=C1NC(=O)C(Cc2ccc3cc(OCc4ccccc4F)ccc3c2)S1 (stereo not drawn)")
"true"
>>> group_label("COc1ccc2cc(CCC(C)C3SC(=O)NC3=O)ccc2c1 (stereo not drawn)")
"false"
